B1: library; a variant is named by its letters at N, in order (parent)
chain: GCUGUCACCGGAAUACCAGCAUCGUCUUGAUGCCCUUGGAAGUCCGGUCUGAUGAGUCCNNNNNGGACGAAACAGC

variants of: B1; experiment: normalized RNA/DNA level with ligand (relative to sTRSVctl = 100) (log10 (% of sTRSVctl)); higher = less ribozyme self-cleavage, higher mRNA level; conditions: ligand concentration (+) RNA-Seq: 5 mM, HEK293T, reporter: mCherry (pCS4076), ligand present: yes
observable: normalized RNA/DNA level with ligand (log10)

Example entries begin here.
GCUGUCACCGGAAUACCAGCAUCGUCUUGAUGCCCUUGGAAGUCCGGUCUGAUGAGUCCCCAAAGGACGAAACAGC ... 1.97
GCUGUCACCGGAAUACCAGCAUCGUCUUGAUGCCCUUGGAAGUCCGGUCUGAUGAGUCCUGGUCGGACGAAACAGC ... 1.98
GCUGUCACCGGAAUACCAGCAUCGUCUUGAUGCCCUUGGAAGUCCGGUCUGAUGAGUCCCCGGCGGACGAAACAGC ... 2
GCUGUCACCGGAAUACCAGCAUCGUCUUGAUGCCCUUGGAAGUCCGGUCUGAUGAGUCCUGAGAGGACGAAACAGC ... 1.92
GCUGUCACCGGAAUACCAGCAUCGUCUUGAUGCCCUUGGAAGUCCGGUCUGAUGAGUCCCUUACGGACGAAACAGC ... 2.04

variant "GCUGUCACCGGAAUACCAGCAUCGUCUUGAUGCCCUUGGAAGUCCGGUCUGAUGAGUCCUUCCCGGACGAAACAGC" , normalized RNA/DNA level with ligand (log10) observed: 1.97

variant "GCUGUCACCGGAAUACCAGCAUCGUCUUGAUGCCCUUGGAAGUCCGGUCUGAUGAGUCCGAACAGGACGAAACAGC" , normalized RNA/DNA level with ligand (log10) observed: 1.92

variant "GCUGUCACCGGAAUACCAGCAUCGUCUUGAUGCCCUUGGAAGUCCGGUCUGAUGAGUCCUUAUUGGACGAAACAGC" , normalized RNA/DNA level with ligand (log10) observed: 1.96
